Reported Metric: melting point

Observe how each entry below is paired with its result.
{"Compound": "CCCCOc1c(CNC(=O)OC(C)(C)C)n(CC(C)(C)C)c(=O)c2ccc(/C=C/C(=O)O)cc12", "melting point": "138 to 139 °C"}
{"Compound": "CC(C)(C)c1ccc(-c2c(Cl)c(CCl)nc3sc4c(c23)CCN(Cc2ccccc2)C4)cc1", "melting point": "208 to 209 °C"}
{"Compound": "NS(=O)(=O)c1cc(C(=O)O)cc(SCc2ccsc2)c1-c1ccccc1", "melting point": "92 to 94 °C"}
{"Compound": "O=C(COc1cc(-c2ccc(Cl)cc2)nc2ccccc12)N1CCSCC1", "melting point": "117 °C"}
{"Compound": "N#Cc1ccc(-c2ccc3c(c2)C2(CCCCC2)C(=O)N3)cc1F", "melting point": "258 to 260 °C"}

Requested read-out: melting point. Entry: "O=C(Nc1ccc(C(=O)N2Cc3ccccc3Cc3ccccc32)cc1)c1ccc(C(F)(F)F)cc1"
205 to 207 °C

Given "FC(F)(F)c1ccc2c(Cl)ncc(Br)c2n1" , state its recorded melting point.
59 to 60 °C

Quick one: melting point of "CN1C(=O)CN=C(c2ccccc2F)c2cc(CCN)ccc21" ?
125 °C

Bench note: what melting point did COC(=O)C1Cc2c([nH]c3ccccc23)CN1C(=O)c1ccc(Cl)cc1 (centres undefined) show?
243 to 244 °C

----------
Listed next: entries and their corresponding melting point.

See these solved cases before continuing.
{"Compound": "Cc1c[nH]c(Cc2ccccc2[N+](=O)[O-])n1", "Result": "125 to 128 °C"}
{"Compound": "Cc1nc(-c2ccccc2)nc(-c2cccc([N+](=O)[O-])c2)c1C(=O)NCCN(C)C", "Result": "122 to 124 °C"}
{"Compound": "CN1CCN(c2ccccc2OCc2cc(CCC(=O)O)c3c(c2)CC(NS(=O)(=O)c2ccc(Cl)cc2)CC3)CC1 (configuration not stated)", "Result": "122 °C"}
{"Compound": "CCCCCCCCCCCCc1csc(-c2c(Cl)c(Cl)c(-c3cc(CCCCCCCCCCCC)cs3)c3nsnc23)c1", "Result": "79 to 80 °C"}
{"Compound": "N#Cc1ccc(-c2nc(Cl)c3c(n2)CCCC3)cc1", "Result": "190 °C"}

Please turn your attention to the following entry.
// returns reported melting point for input COc1ccc(C2=NN(C(C)(C)C)C(=O)[C@H]3CCCC[C@@H]23)cc1OC (relative stereo)
99 to 101 °C

----------
Reported Metric: melting point

Answered examples (5):
{"Molecule": "CC(=O)NC[C@H]1CN(c2ccc(C3CCN(CC#N)CC3)c(F)c2)C(=O)O1", "melting point": "165 to 167 °C"}
{"Molecule": "Cc1cccc(NC(=O)c2cc(=O)[nH]c3ccc(C(=O)c4ccc(Cl)cc4)cc23)c1", "melting point": "230 °C"}
{"Molecule": "CCOC(=O)c1nc(Cl)nc(N)c1OC", "melting point": "118 to 119 °C"}
{"Molecule": "CCc1ccc2cc(C)c(-n3cncn3)nc2c1", "melting point": "72 to 73 °C"}
{"Molecule": "CCCc1c(OCCCCCOc2c(C(C)=O)ccc(OCCCC(=O)O)c2CCC)ccc(C(C)=O)c1O", "melting point": "61 to 66 °C"}

Which melting point is listed for "CCCCCCCCOc1ccc(-c2ccc(-c3ccc4c(c3)C(CC)(CC)c3cc(-c5ccc(-c6ccc(OCCCCCCCC)cc6)cc5)ccc3-4)cc2)cc1" ?
146 °C

Please report the recorded melting point for C=Cn1cc(C(=O)O)c(=O)c2cc(F)c(N3CCN(C)C(C)C3)c(F)c21 (stereo unspecified) .
178 to 179 °C

Suppose we examine the molecule "CCN1c2ncccc2C(=O)Nc2c(C)cc(NCCO)nc21" ; what melting point value has been reported?
241 to 244 °C

What value of melting point has been reported for the following molecule? "Brc1ccc(-c2nc3cc(Br)ccc3s2)cc1"
162 to 163 °C

State the recorded melting point for this entry: "C=CCC(=NO)C(C)=NNc1c(Cl)cc(C(F)(F)F)cc1Cl"
71 to 73 °C

----------
# melting point per entry

Answered examples (3):
{"Compound": "Cc1ccc(C(C#N)=C2CCCCC2)cc1", "Reported Metric": "melting point", "Result": "50.5 to 51.3 °C"}
{"Compound": "COCC1CCCN1S(=O)(=O)c1ccc2c(c1)C(=O)C1=NCC3(CCCC3)CN12 (stereo not drawn)", "Reported Metric": "melting point", "Result": "171 to 172 °C"}
{"Compound": "O=C(c1cc(=O)c2cc(O)ccc2[nH]1)N1CCC(COc2ccccc2)CC1", "Reported Metric": "melting point", "Result": "130 °C"}

# input compound: "Cc1ccc(Oc2cncc3sc(C(N)=O)cc23)cc1" ; wanted: its melting point
196 to 197 °C

Query: melting point; subject: CCOC(=O)C(C)Oc1ncn(-c2cccc(C(F)(F)F)c2)n1 (stereo not drawn)
100 to 102 °C

Which value of melting point has been reported for "O=C(O)/C=C/c1cncc(OCc2ccccc2)c1" in the records?
140 °C

Tell me the measured melting point of CC1N=C(c2ccccc2)c2cc(Cl)ccc2NC1=O (stereo not drawn) , please.
224 °C

// lookup melting point for O=C(/C=C/c1ccccc1)NC1CCN(CCC2CCOc3ccccc32)CC1 (stereo not drawn)
168 to 170 °C

Which melting point value is on record for "CCOC(=O)c1c(-c2cccc(Cl)c2)csc1N1C(=O)c2ccccc2C1=O" ?
169 °C

----------
Listing: melting point of selected molecules

Would you please look over these solved cases?
{"Molecule": "Cc1cccc2nc(C(S)c3ncnc4[nH]cnc34)n(-c3ccccc3Cl)c(=O)c12 (stereo not given)", "melting point": "228 to 230 °C"}
{"Molecule": "COCCOc1cc2c(Nc3cc(OC)c(Cl)cc3Cl)c(C#N)cnc2cc1OCC1CCN(C)CC1", "melting point": "153 to 155 °C"}

Sample "NC(=O)N1C(=O)C(=C(OC(=O)COCc2ccccc2)c2cccs2)c2cc(F)c(Cl)cc21" — what was its melting point?
150 to 175 °C

Recorded melting point of CCc1c(Sc2cc(C)cc(C)c2)n(CC2=CC(CO)C(CO)C2)c(=O)[nH]c1=O (stereo not given) , please.
156 to 157 °C

Return reported melting point; argument: "CS(=O)(=O)c1ccc(-c2nc(-c3cc4ccccc4o3)[nH]c2-c2ccc(F)cc2)cc1"
235 to 237 °C

Field request: melting point | item: "Cc1cc(C#N)nc(Oc2cc(C(F)(F)F)nn2C)c1"
88 °C

Need melting point of "CN(C)N=Cc1cc2c(cn1)[nH]c1ccccc12" , thanks.
203 to 206 °C

Form field: reported melting point of "CC(C)(C)OC(=O)c1ncn2c1CN(C(=O)N1CCCC1)c1c(F)cccc1-2"
214 °C

Entry under review: "Fc1cccc(C=Cc2nccc3ccccc23)c1" . Reported melting point?
89 to 99 °C

----------
Reported Metric: melting point

Reference set (5 entries):
{"Compound": "CC(C)(C)OC(=O)C[C@@H]1C[C@@H](COc2ccc(-c3ccc(C#N)c(Cl)c3)cc2)NC1=O", "melting point": "140 to 142 °C"}
{"Compound": "COc1ccc(C(Cc2ccncc2)c2ccc(C(N)=O)cc2)cc1OC1CCCC1 (stereo not given)", "melting point": "180 to 182 °C"}
{"Compound": "Nc1cccc(-c2ccc(C3CCNC3=O)cc2F)n1 (stereo not given)", "melting point": "185 to 188 °C"}
{"Compound": "O=C1NC(=S)NC(=O)C1c1ccccc1F", "melting point": "> 240 °C"}
{"Compound": "CCNc1nc(N=[N+]=[N-])nc(NC(C)C(F)(F)F)n1 (stereo not given)", "melting point": "69 to 75 °C"}

Need melting point, item CCCCCOC1=C(c2ccccc2)C(CCC(=O)O)OC1=O (stereo not given)
86 to 87 °C

Which value of melting point has been reported for "Oc1ccccc1-c1nc2sc(-c3ccccc3O)nc2s1" in the records?
300 °C

Recorded melting point of "CCOC(=O)C=Cc1ccc(NC(=O)Oc2ccccc2)cc1" , please.
136 to 138 °C

Requested field: melting point. Item: CCCCCCCCCCCCCCCCCCOC(C)c1ccc(-c2ccc(C(=O)O)cc2)cc1 (single isomer, unassigned; (+))
145 to 146 °C

For the compound "CC(C)(O)CCOc1ccc(/C=C/C(=O)O)c(Oc2ncc(C(F)(F)F)cc2Cl)c1" , what melting point is on record?
192 to 194 °C

# input compound: "COc1cccc(-c2c(Cl)c(CN3CCCCC3)nc3sc4c(c23)CCN(Cc2ccccc2)C4)c1OC" ; wanted: its melting point
173 to 174 °C

Can you share its melting point? I mean this compound: "C=CCc1cc(C(=O)c2ccnn2C)c(Cl)c(Cl)c1OCC(=O)O"
111 to 113 °C
